pKd values, listed per item
Molecular target: T1, EsCas13d, nuclease-dead (Eubacterium siraeum, UniProt B0MS50, R295A;H300A;R849A;H854A)
T1 sequence: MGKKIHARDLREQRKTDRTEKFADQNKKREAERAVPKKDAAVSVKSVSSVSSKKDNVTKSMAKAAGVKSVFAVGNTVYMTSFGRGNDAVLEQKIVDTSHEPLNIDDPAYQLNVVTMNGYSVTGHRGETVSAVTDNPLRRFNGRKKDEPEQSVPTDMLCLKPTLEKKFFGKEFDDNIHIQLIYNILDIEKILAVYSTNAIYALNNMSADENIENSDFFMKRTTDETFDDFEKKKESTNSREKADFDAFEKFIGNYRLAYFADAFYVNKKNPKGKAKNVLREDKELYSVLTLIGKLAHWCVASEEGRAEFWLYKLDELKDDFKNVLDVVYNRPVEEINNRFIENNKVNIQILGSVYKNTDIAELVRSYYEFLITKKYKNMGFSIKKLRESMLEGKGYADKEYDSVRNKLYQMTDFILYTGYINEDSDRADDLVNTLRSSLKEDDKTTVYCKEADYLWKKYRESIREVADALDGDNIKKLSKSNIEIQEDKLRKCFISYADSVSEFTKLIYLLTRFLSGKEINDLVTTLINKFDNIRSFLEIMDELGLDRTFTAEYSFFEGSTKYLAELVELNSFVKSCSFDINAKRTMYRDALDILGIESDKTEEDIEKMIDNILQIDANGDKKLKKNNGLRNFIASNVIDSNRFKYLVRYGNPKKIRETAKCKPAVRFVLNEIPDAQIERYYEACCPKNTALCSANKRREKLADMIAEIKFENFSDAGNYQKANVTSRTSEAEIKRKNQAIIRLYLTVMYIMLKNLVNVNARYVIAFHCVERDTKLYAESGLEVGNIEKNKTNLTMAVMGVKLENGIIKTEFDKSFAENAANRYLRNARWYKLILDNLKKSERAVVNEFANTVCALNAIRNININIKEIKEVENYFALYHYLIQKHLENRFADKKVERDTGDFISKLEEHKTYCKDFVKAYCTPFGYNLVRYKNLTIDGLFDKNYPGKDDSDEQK
Assay: crRNA (strand 1, pre-loaded); Mg2+; 40 mM Tris-HCl pH 7.5, 150 mM NaCl, 6 mM MgCl2, 1 mM DTT, 0.1% Tween-20, 0.2 mg/ml BSA; 25 C; 10 min per concentration, then washed
Settings: tags: His6-TwinStrep-SUMO cleaved; N-terminal SNAP kept (SNAP-Surface 488); label: 3' end held by stalled T7 RNA polymerase
In simple prose, pKd is minus the logarithm base ten of a concentration in moles per litre.

target 3 insU 3' of 16,insC 3' of 3 (mixed) RNA 1: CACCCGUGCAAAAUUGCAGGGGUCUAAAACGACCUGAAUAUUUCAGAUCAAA RNA 2: GGGAAUGGAUCCACAUCUACGAAUUCGUUUUUGAUCUUGAAAUAUUCAGGCUCUGCAGAUCGGAAGAGCACACGU    7.19
target 1 insA 3' of 13,insG 3' of 2 (mixed) RNA 1: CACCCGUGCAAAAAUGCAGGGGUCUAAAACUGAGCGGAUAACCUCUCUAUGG RNA 2: GGGAAUGGAUCCACAUCUACGAAUUCGUACCAUAGAGAGAGUUAUCCGCUCGACCGAGAUCGGAAGAGCACACGU    8.45
target 1 del17 (mixed) RNA 1: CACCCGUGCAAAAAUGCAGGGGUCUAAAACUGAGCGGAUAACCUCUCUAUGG RNA 2: GGGAAUGGAUCCACAUCUACGAAUUCGUACCAUAAGAGGUUAUCCGCUCACCGAGAUCGGAAGAGCACACGU    7.65
target 3 insU 3' of 9,insG 3' of 7 (mixed) RNA 1: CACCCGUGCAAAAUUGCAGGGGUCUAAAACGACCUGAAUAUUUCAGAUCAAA RNA 2: GGGAAUGGAUCCACAUCUACGAAUUCGUUUUUGAUCUGAAAUAUUUGCAGGUCUGCAGAUCGGAAGAGCACACGU    7.07
target 1 U3C,G5C (mixed) RNA 1: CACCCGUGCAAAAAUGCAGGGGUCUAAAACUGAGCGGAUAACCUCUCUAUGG RNA 2: GGGAAUGGAUCCACAUCUACGAAUUCGUACCAUAGAGAGGUUAUCCCCCCACCGAGAUCGGAAGAGCACACGU    8.20
target 1 MT 5'PFS GAC 3'PFS UUU (mixed) RNA 1: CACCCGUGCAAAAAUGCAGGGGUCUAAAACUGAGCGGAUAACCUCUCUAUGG RNA 2: GGGAAUGGAUCCACAUCUACGAAUUCGACCCAUAGAGAGGUUAUCCGCUCAUUUAGAUCGGAAGAGCACACGU    7.96
target 1 insU 3' of 13,insA 3' of 10 (mixed) RNA 1: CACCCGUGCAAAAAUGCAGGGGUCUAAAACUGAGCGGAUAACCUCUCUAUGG RNA 2: GGGAAUGGAUCCACAUCUACGAAUUCGUACCAUAGAGAGUGUUAAUCCGCUCACCGAGAUCGGAAGAGCACACGU    7.59

Now for a further binder.
// pKd lookup, binder = target 2 MT 5'PFS UGG 3'PFS CCA (mixed) RNA 1: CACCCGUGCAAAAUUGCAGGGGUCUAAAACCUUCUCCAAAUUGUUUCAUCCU RNA 2: GGGAAUGGAUCCACAUCUACGAAUUCUGGAGGAUGAAACAAUUUGGAGAAGCCAAGAUCGGAAGAGCACACGU , result: 7.82
